# credit: PubChem BioAssay (NCI)

- Test system: OVCAR-3 ovarian
- assay-remarks: NCI-60 one-dose screen, 48 h (100 = growth as untreated, 0 = no growth, -100 = all killed)
- condition-summary: 10 µM unless noted
The panel holds about 83,000 compounds, 20% with a hit somewhere; the sample as a whole holds those more often.
Recorded growth split into classes category 1: < 40%; category 2: ≥ 40% and < 90%; category 3: ≥ 90%

CC(=O)Nc1ccc(-c2cc3c(NCc4ccc(F)cc4)ncnc3s2)cc1 = category 2
COc1cc2oc(-c3cccc(C(=O)Nc4ccc(C)cc4)c3)cc(=O)c2c(OC)c1OC = category 2
Cc1cc(=O)c2cc3nc(-c4cccnc4)oc3c(Br)c2o1 = category 3
CC(C)(C)c1ccc(C(=O)Nc2sc3c(c2C(N)=O)CCC(=O)C3)cc1 = category 1
O=S(=O)(NCCNc1cc(-c2c(-c3cccc(O)c3)nc3sccn23)ccn1)c1ccc(Br)cc1 = category 2

Task: // bin(item) where item = COc1cccc(-c2cnco2)c1OCc1c(C)c(COc2c(OC)cccc2-c2cnco2)c(C)c(COc2c(OC)cccc2-c2cnco2)c1C
Result: category 2

Task: // bin(item) where item = COc1ccc(/C=N/NC(=O)Cn2c(-c3ccc(S(C)(=O)=O)cc3)nc3cc(Cl)ccc32)cc1
Result: category 1

Task: // bin(item) where item = NC(=Nc1ccc(N)cc1)C(N)=Nc1ccc(N)cc1
Result: category 3
